I'd be grateful if you could share measured hepatocyte CLint for these entries.
Assay method text: in vitro
Applied conditions: hepatocytes
Give your result in µL/min/1e6 cells as a bare value.

Please report the recorded hepatocyte CLint for CNCCC=C1c2ccccc2CCc2ccccc21 [NORTRIPTYLINE] . 144

What does the data say about its hepatocyte CLint? Entry: O=C(O)c1cc2cc(OCc3ccccc3)ccc2[nH]1 25.7

Requested read-out: hepatocyte CLint. Entry: CCc1[nH]c2nc(Sc3cnc4ccc[n+]([O-])c4c3)nc(N3C[C@@H]4[C@@H](N)[C@@H]4C3)c2c1Cl 58.9

Consider the compound Cc1cn([C@H]2CCCN(S(=O)(=O)c3ccc(O)c(Oc4cc(F)cc(Cl)c4)c3)C2)c(=O)[nH]c1=O and give its measured hepatocyte CLint. 74.1

I am curious: what hepatocyte CLint value has been reported for COc1cc2c(Nc3ccc(F)c(Cl)c3)c(C(N)=O)cnc2cc1OCCN(C)CCO ? 12.6
